biological target: monkey GPC3-His protein (monkey); test: ELISA, monkey GPC3-His coated; antibody 0.0008 nM
Threshold 0.07. OD450 nm below it: true. OD450 nm at it or above: false.

These solved cases illustrate the format of a correct answer.
binder | assigned-category
hAb007LH2L1a (antibody, human IgG1, V domains shown) VH: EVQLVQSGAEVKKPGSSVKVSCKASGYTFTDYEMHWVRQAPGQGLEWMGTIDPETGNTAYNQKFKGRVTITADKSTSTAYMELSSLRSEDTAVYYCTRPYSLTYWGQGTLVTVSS VL: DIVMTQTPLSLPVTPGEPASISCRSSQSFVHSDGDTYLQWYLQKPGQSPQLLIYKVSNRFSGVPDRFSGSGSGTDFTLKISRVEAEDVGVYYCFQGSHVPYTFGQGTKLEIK | true
hAb005LH2L1 (antibody, human IgG1, V domains shown) VH: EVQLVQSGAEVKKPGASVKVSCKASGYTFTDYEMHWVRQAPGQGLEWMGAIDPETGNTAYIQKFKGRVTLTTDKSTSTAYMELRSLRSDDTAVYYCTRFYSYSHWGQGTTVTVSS VL: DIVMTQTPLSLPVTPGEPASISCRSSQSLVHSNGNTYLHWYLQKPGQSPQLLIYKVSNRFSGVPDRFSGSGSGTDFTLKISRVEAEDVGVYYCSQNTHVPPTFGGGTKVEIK | false
hAb005LH1L1a (antibody, human IgG1, V domains shown) VH: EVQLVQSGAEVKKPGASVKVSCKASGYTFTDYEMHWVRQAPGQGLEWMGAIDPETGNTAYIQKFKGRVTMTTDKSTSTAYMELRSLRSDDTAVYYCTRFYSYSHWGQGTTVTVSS VL: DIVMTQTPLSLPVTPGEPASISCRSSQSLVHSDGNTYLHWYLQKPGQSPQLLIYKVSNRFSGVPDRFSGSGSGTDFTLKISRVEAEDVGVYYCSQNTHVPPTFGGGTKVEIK | true

### Prompt In the record for hAb006LH3L1a (antibody, human IgG1, V domains shown) VH: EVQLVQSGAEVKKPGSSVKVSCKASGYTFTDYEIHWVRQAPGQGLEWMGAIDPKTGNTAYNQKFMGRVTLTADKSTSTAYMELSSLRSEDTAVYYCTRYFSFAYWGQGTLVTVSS VL: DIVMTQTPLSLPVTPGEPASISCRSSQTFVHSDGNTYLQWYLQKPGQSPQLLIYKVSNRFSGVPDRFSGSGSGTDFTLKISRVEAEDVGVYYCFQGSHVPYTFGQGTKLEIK , is OD450 nm less than 0.07?
### Response true

### Prompt hey, is OD450 nm for hAb003LH1L1b (antibody, human IgG1, V domains shown) VH: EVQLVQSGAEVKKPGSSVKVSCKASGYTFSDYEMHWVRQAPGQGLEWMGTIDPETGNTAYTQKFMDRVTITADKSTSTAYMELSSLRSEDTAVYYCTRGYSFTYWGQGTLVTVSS VL: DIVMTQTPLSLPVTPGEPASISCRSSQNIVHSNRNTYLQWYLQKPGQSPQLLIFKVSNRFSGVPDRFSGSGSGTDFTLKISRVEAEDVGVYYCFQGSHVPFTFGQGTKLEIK lower than 0.07 or not?
### Response false
